Give measured melting point for each item. Keep answers brief.

Challenge: Quick check: melting point of C/C=C/C(=O)Nc1c(C(=O)OCC)oc2ccccc12 ?
Response given: 143.2 to 145.6 °C

Challenge: Moving on to the next compound: COc1ccc2oc(-c3csc(C)n3)c(-c3ccc(Cl)cc3)c2c1
Response given: 105.8 to 106.5 °C

Challenge: Now give it for COc1ccc(/C=C/C(=O)c2oc3ccc(Br)cc3c2NC(=O)CCCl)cc1 too.
Response given: 170.7 to 172 °C

Challenge: Let us now turn to CCOC(=O)/C=C(\C)c1ccc2oc(/C(Cl)=C/C=C/C(=O)N3CCOCC3)cc2c1
Response given: 194.6 to 196.5 °C

Challenge: Moving on to the next compound: Clc1ccc(-c2c(-c3csc(-c4ccccc4)n3)oc3c(Cl)cccc23)cc1
Response given: 165.5 to 166 °C

Challenge: Item: CC(=O)c1oc2ccc(Br)cc2c1NC(=O)/C(C#N)=C(/C)O
Response given: 221.9 to 222.4 °C

Challenge: Item: COc1ccc(NC(=O)/C=C/c2oc3ccc(OC)cc3c2-c2ccc(Cl)cc2)cc1
Response given: 194 to 195.1 °C

Challenge: Also, COc1ccc(CCNC(=O)/C=C(\C)c2cc3cccc(OC(c4ccccc4)c4ccccc4)c3o2)cc1OC please.
Response given: 70.8 to 73.5 °C

###

Recorded Metric: melting point

Challenge: For the molecule shown here, Cc1oncc1C(=O)Nc1c(C(N)=O)oc2ccccc12 [Example 79] , give the reported melting point.
Response given: 250.7 to 252.6 °C

Challenge: CCOC(=O)CCCOc1cccc2cc(/C(C)=C\C(=O)Nc3ccc(OC)c(OC)c3)oc12 [Example 46] , same question.
Response given: 101.5 to 105 °C

Challenge: Likewise for C/C(O)=C(\C#N)C(=O)Nc1c(C(=O)c2ccc(C#N)cc2)oc2ccc(Br)cc12 [Example 100] ?
Response given: 269.3 to 271.2 °C

Challenge: Subsequent entry: COc1cccc2c(NC(=O)/C=C/c3ccccc3)c(C(=O)c3ccc(Br)cc3)oc12 [Example 179]
Response given: 236.5 to 237.8 °C

Challenge: Check CC(=O)c1cc2cc(/C(C)=C/C(=O)N3CCOCC3)ccc2o1 [Example 27] too.
Response given: 138.9 to 141.8 °C

###

Record form. Attribute: melting point. Fill in for each entry.

Challenge: For the compound shown here, COc1ccc(CCNC(=O)/C=C(\C)c2ccc(C(=O)c3oc4c(OC)cccc4c3NC(=O)/C(C#N)=C(/C)O)cc2)cc1OC , give the reported melting point.
Response given: 202.9 to 205.8 °C

Challenge: Next compound up: O=C(CCCl)Nc1c(C(=O)/C=C/c2ccccc2)oc2ccc(Br)cc12
Response given: 204.7 to 206.8 °C

Challenge: Another compound to check: COc1cccc2cc(/C(Cl)=C/C=C/C(=O)N3CCOCC3)oc12
Response given: 185.4 to 186.6 °C

Challenge: Another compound to check: CCN(CC)C(=O)/C=C(\C)c1ccc2oc(C(C)=O)c(NC(=O)c3cnoc3C)c2c1
Response given: 170.3 to 174.1 °C

Challenge: What about C/C=C/C(=O)Nc1c(C(=O)c2ccc(Cl)cc2)oc2ccc(Br)cc12 ?
Response given: 210.4 to 212.8 °C

Challenge: Also CCN(CC)C(=O)/C=C(\C)c1ccc(OCCCC(=O)O)c2oc(/C(C)=C/C(=O)O)cc12 , if possible.
Response given: 199.5 to 201.9 °C

Challenge: Now consider CC(=O)c1oc2ccc(/C(C)=C/C(=O)N3CCN(c4ccccc4)CC3)cc2c1NC(=O)/C(C#N)=C(/C)O .
Response given: 167.6 to 168.7 °C

Challenge: Entry to check: CCOC(=O)C(CSCc1ccccc1)NC(=O)/C=C/C=C(\Cl)c1cc2cc(Br)ccc2o1 (stereo not drawn)
Response given: 133.7 to 135.4 °C

Challenge: Field entry: CCN(CC)C(=O)/C=C(\C)c1ccc2oc(C(=O)c3ccc(C#N)cc3)c(NC(=O)c3cnoc3C)c2c1
Response given: 202.6 to 205.5 °C

Challenge: Next compound up: Brc1ccc2oc(-c3csc(-c4ccccc4)n3)cc2c1
Response given: 185.5 to 187.8 °C

Challenge: Then C/C(=C\C(=O)N1CCOCC1)c1ccc2oc(C(=O)c3ccc(C#N)cc3)c(NC(=O)c3cnoc3C)c2c1 ?
Response given: 229.4 to 232.5 °C

Challenge: What do we get for COc1ccc(CCNC(=O)/C=C/C=C(\Cl)c2cc3cc(Br)ccc3o2)cc1OC ?
Response given: 161.3 to 162.1 °C

Challenge: # iterate: CC(=O)c1oc2ccc(Br)cc2c1NC(=O)/C=C/CCc1ccccc1
Response given: 129 to 131 °C

Challenge: Also, CC(NC(=O)/C=C/c1ccccc1)c1cc2cccc(OCCCCl)c2o1 (stereo not drawn) please.
Response given: 132.2 to 139.7 °C

Challenge: Please do the same for CC(=O)NC(C)c1cc2ccccc2o1 (stereo not drawn) [Example 190, N-(1-benzofuran-2-ylethyl)acetamide] as well.
Response given: 128 to 130 °C

Challenge: Moving on to COc1cccc(NC(=O)/C=C(\C)c2cc3cccc(OCCCC(=O)O)c3o2)c1
Response given: 155.5 to 157.5 °C

Challenge: Request: COc1ccc(NC(=O)/C=C(\C)c2oc3c(Cl)cccc3c2-c2ccc(Cl)cc2)cc1
Response given: 168.9 to 170 °C

Challenge: # repeat for COc1ccc2oc(-c3csc(NC(=O)c4cnoc4C)n3)c(-c3ccc(Cl)cc3)c2c1
Response given: 216.8 to 218.7 °C

Challenge: How about this compound: COc1ccc(CCNC(=O)/C=C(\C)c2ccc(C(=O)c3oc4c(OC)cccc4c3NC(=O)c3cnoc3C)cc2)cc1OC
Response given: 237.5 to 239.1 °C

Challenge: Proceed to COc1ccc(CCNC(=O)/C=C/C=C(\Cl)c2cc3cccc(OCCCCl)c3o2)cc1OC
Response given: 149 to 150 °C

Challenge: Another compound to look at: CCN(CC)C(=O)/C=C(/C)c1oc2ccc(Br)cc2c1C
Response given: 60.1 to 62 °C

Challenge: Cool, now COc1ccc(CCNC(=O)/C=C(\C)c2ccc3oc(C(C)=O)c(NC(=O)/C(C#N)=C(/C)O)c3c2)cc1OC
Response given: 176.7 to 179.7 °C

Challenge: Lookup Cc1oncc1C(=O)Nc1c(C(=O)c2ccc(Cl)cc2)oc2ccc(Br)cc12
Response given: 240.8 to 243.2 °C

Challenge: Same question for CCOC(=O)c1oc2ccccc2c1NC(=O)/C=C/c1ccccc1 please.
Response given: 162.4 to 163.8 °C

Challenge: Next record, please: C/C=C/C(=O)Nc1c(C(=O)/C=C/N(C)C)oc2ccc(Br)cc12
Response given: 247.5 to 249.5 °C

Challenge: And C/C(O)=C(\C#N)C(=O)Nc1c(C(=O)c2ccc(Cl)cc2)oc2ccc(Br)cc12 ?
Response given: 263.3 to 265.3 °C

Challenge: Same for COc1ccc(NC(=O)/C=C(\C)c2cc3cccc(OC(C)c4ccccc4)c3o2)cc1 (stereo not drawn)
Response given: 120 to 125 °C

###

What melting point was measured for each of the following?

Challenge: Which melting point value belongs to C/C(O)=C(\C#N)C(=O)Nc1c(C(=O)O)oc2ccccc12 [Example 92] ?
Response given: 196.3 to 196.6 °C

Challenge: Query COc1cccc(NC(=O)c2oc3ccc(Br)cc3c2NC(=O)c2cnoc2C)c1 [Example 183] next
Response given: 223 to 229 °C

Challenge: What do you have for COc1cccc2c(NC(=O)CCl)c(C(C)=O)oc12 [Example 205] ?
Response given: 186.2 to 188.3 °C

Challenge: How about this compound: CC(=O)c1oc2ccc(Br)cc2c1NC(=O)c1cnoc1C [Example 65]
Response given: 206 to 208 °C

Challenge: Please answer likewise for CCN(CC)C(=O)/C=C(\C)c1ccc(OCC(=O)c2ccc3c(c2)OCO3)c2oc(C(C)=O)cc12 [Example 13]
Response given: 142 to 144 °C

Challenge: Moving on to the next compound: CCOC(=O)c1oc2ccccc2c1NC(=O)/C(C#N)=C(/C)O [Example 107]
Response given: 147.5 to 150.1 °C

Challenge: Please answer likewise for COc1ccc2c(NC(=O)c3cnoc3C)c(C(C)=O)oc2c1 [Example 83]
Response given: 168.2 to 170.1 °C

Challenge: Moving on to COc1cccc(NC(=O)c2oc3ccc(Br)cc3c2NC(=O)/C(C#N)=C(/C)O)c1 [Example 188]
Response given: 234.5 to 241.5 °C

Challenge: Same again, this time with COc1ccc(C(=O)Nc2c(Cl)oc3ccc(Br)cc23)cc1 [Example 200]
Response given: 195.5 to 197 °C
